# measurementNotes: Oral bioavailability in CD-1 mouse at 5 mg/kg by LC-MS/MS method
# Assay type: ADME, organism-based
# reportedConditions: in vivo
testReadout: bioavailability (%)

* CC1(C)CC(c2ccc(S(=O)(=O)Nc3cc4c(=O)[nH]ccc4cc3F)s2)=CNC1=O | 23

A: O=c1[nH]ccc2cc(F)c(NS(=O)(=O)c3ccc(N4C[C@@H](O)[C@@H](F)C4)s3)cc12 (stereo in doubt)
B: O=c1[nH]ccc2cc(F)c(NS(=O)(=O)c3ccc(N4C[C@@H](O)C(F)(F)C4)s3)cc12
Hi, I'm comparing two records. Which one has the lower bioavailability, A or B ? // respond with label for picked entry A

* * *

# measurementNotes: Fraction unbound in CD-1 mouse plasma
# Assay type: ADME, cell-free
testReadout: fraction unbound

Below, 5 molecules whose answers are already recorded.
- O=c1[nH]ccc2cc(F)c(NS(=O)(=O)c3ccc(N4CCC[C@H](O)C4)s3)cc12: 0.03
- O=c1[nH]ccc2cc(F)c(NS(=O)(=O)c3ccc(N4CC[C@@H](O)C4)s3)cc12: 0.06
- O=c1[nH]ccc2cc(F)c(NS(=O)(=O)c3ccc(N4CCC[C@@H](O)C4)s3)cc12: 0.03
- O=c1[nH]ccc2cc(F)c(NS(=O)(=O)c3ccc(N4CC[C@H](O)C4)s3)cc12: 0.05
- O=c1ccc(-c2ccc(S(=O)(=O)Nc3cc4c(=O)[nH]ccc4cc3F)s2)c[nH]1: 0.05

A: O=c1[nH]ccc2cc(F)c(NS(=O)(=O)c3ccc(N4C[C@@H](F)[C@@H](O)C4)s3)cc12 (stereo in doubt)
B: O=c1[nH]ccc2cc(F)c(NS(=O)(=O)c3ccc(N4C[C@H](O)C(F)(F)C4)s3)cc12
C: O=c1[nH]ccc2cc(F)c(NS(=O)(=O)c3ccc(N4C[C@@H](O)C(F)(F)C4)s3)cc12
Arrange the 3 entries by fraction unbound so the values rise. Sort the labels as requested; that list is your answer. B, C, A
(B: 0.02, C: 0.03, A: 0.05)

* * *

# tgt: Bifunctional methylenetetrahydrofolate dehydrogenase/cyclohydrolase, mitochondrial (Homo sapiens, UniProt P13995)
# Sequence (P13995 whole entry): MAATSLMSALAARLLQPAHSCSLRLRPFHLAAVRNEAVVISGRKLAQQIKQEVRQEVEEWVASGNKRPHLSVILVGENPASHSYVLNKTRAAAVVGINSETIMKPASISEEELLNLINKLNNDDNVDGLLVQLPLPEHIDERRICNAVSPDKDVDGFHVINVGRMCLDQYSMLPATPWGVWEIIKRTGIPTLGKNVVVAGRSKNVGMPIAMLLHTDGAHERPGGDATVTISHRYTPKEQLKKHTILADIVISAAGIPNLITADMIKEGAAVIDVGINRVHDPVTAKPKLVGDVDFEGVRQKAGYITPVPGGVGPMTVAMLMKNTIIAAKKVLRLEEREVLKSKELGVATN
# measurementNotes: Inhibition of MTHFD2 (unknown origin) using NAD/5,10-methylene THF as substrate after 30 mins by HPLC method
testReadout: IC50

Identify measured IC50 corresponding to O=c1[nH]ccc2cc(F)c(NS(=O)(=O)c3ccc(N4CC[C@@H](O)C4)s3)cc12 > 100 µM

* * *

# measurementNotes: Drug metabolism in microsomes (unknown origin)
# Format: ADME, Microsome
# reportedConditions: read-out: Drug metabolism
testReadout: metabolised

Identify measured metabolised corresponding to O=c1[nH]ccc2cc(F)c(NS(=O)(=O)c3ccc(N4CC[C@@H](O)C4)s3)cc12 < 10%

* * *

# tgt: Bifunctional purine biosynthesis protein ATIC (Homo sapiens)
# Sequence (P31939 whole entry): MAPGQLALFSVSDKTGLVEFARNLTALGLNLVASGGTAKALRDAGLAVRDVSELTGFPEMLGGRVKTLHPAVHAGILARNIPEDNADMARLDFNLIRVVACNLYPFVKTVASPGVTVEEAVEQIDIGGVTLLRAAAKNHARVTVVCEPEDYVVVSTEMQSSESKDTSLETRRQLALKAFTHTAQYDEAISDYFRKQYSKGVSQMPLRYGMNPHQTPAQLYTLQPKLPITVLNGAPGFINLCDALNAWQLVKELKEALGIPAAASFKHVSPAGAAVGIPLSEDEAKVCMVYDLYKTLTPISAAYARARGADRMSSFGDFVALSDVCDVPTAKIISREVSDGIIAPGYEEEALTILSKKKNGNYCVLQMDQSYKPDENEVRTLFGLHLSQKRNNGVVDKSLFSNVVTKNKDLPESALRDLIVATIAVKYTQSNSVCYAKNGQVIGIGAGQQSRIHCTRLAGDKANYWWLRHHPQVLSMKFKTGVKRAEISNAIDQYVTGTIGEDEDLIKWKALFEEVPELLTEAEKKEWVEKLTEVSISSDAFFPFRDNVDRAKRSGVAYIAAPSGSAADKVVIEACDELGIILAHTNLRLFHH
# measurementNotes: Inhibition of human full length N-terminal His-tagged AICARFT expressed in Escherichia coli BL21 (DE3) using ZMP/10-formyltetrahydrofolate as substrate assessed as decrease in IMP levels after 1 hr by mass spectrometric method
testReadout: IC50 (nM)

Below, 4 compounds whose answers are already recorded.
- N#Cc1ccc(S(=O)(=O)Nc2cccc(C(N)=O)c2)cc1: 90000
- O=c1[nH]ccc2cc(F)c(NS(=O)(=O)c3ccc(N4C[C@H](O)C(F)(F)C4)s3)cc12: 13
- O=c1[nH]ccc2cc(F)c(NS(=O)(=O)c3ccc(N4C[C@@H](O)[C@@H](F)C4)s3)cc12 (stereo in doubt): 7.8
- N#Cc1ccc(S(=O)(=O)Nc2ccc3cc[nH]c(=O)c3c2)cc1: 608

A: N#Cc1ccc(S(=O)(=O)Nc2ccc3nc(N)[nH]c(=O)c3c2)cc1
B: O=C1NC(=O)c2cc(NS(=O)(=O)c3ccc(Cl)cc3)ccc21
C: N#Cc1ccc(S(=O)(=O)Nc2cc3c(=O)[nH]ccc3cc2F)cc1
D: O=c1[nH]ccc2cc(F)c(NS(=O)(=O)c3ccc(N4CCC(O)CC4)s3)cc12
E: O=c1[nH]ccc2cc(F)c(NS(=O)(=O)c3ccc(N4C[C@@H](F)[C@@H](O)C4)s3)cc12 (stereo in doubt)
Arrange the 5 entries by IC50 so the values rise. Sort the labels as requested; that list is your answer. D, E, C, A, B
